- target-of-assay: cyclin D1/cdk 4 enzyme (Homo sapiens)
- Construct: made in house; host or cells: Sf9 insect cells, recombinant baculovirus
- assay-name: CDK4 ELISA kinase assay (phospho-Rb ser 795 detection)
- Format: biochemical
- run-conditions: In Vitro Enzyme Assay, cyclin D1/cdk 4, read-out: CDK4 IC50
reported-endpoint: IC50 (µM)

P: CN1CCN(c2ncc(N/C=C3\C(=O)NC(=O)c4ccc(-c5ccoc5)cc43)cn2)CC1 [Example 484]
Q: O=C1NC(=O)c2ccccc2C1=CNCc1ccc(NS(=O)(=O)CC(F)(F)F)cc1 [Example 591]
R: CN1CCN(c2ccc(NC=C3C(=O)NC(=O)c4ccc(C=CCOCCO)cc43)cc2)CC1 [Example 799]
Q: Highest IC50 first, then in falling order down to the smallest. // ordering of labels required in reply
Ans: Q, R, P
(Q: 23.2 µM, R: 6.37 µM, P: 0.25 µM)

I: CCCCc1ccc(CN/C=C2\C(=O)NC(=O)c3ccc(I)cc32)cc1O [Example 495]
II: CC(=O)c1ccc(-c2ccc3c(c2)C(=CNCc2ccc(O)c(O)c2)C(=O)NC3=O)cc1 [Example 775]
III: CN1CCN(c2ccc(NC=C3C(=O)NC(=O)c4ccc(C=Cc5ccc(C(=O)O)cc5)cc43)cc2)CC1 [Example 727]
Q: # ascending order, key=IC50 // ordering of labels required in reply
Ans: II, I, III

P: O=C1NC(=O)c2ccc(-c3cccc(C(F)(F)F)c3)cc2C1=CNCc1ccc(O)c(O)c1 [Example 773]
Q: NS(=O)(=O)c1ccc(CNC=C2C(=O)NC(=O)c3ccc(-c4cc5ccccc5o4)cc32)cc1 [Example 634]
Q: Dear colleague, could you let me know whether P or Q has the lower recorded IC50? Thanks. Give the label of your selection.
Ans: P
(P: 1.18 µM, Q: 9.9 µM)

---

Listed here: items and their measured pIC50.
- Test system: MCF-7
- assay-name: Cytotoxicity assay (SRB), MCF-7
- Format: cell-based
- run-conditions: Homo sapiens, MCF7, 72 h, MCF-7 cells, SRB, three days; read-out: In Vitro Cellular Activity IC50 MCF-7
Conceptually, pIC50 converts a concentration in mol/L into minus its log10.

CC1CN(C)[C@H](C)CN1c1ccc(N/C=C2\C(=O)NC(=O)c3ccc(I)cc32)cc1 (stereo in doubt) [Example 233]; 6.00

Q: Note down pIC50 recorded for COc1cc2c(cc1-c1ccoc1)/C(=C/Nc1ccc(N3CCN(C)CC3)cc1)C(=O)NC2=O [Example 254]
Ans: 5.62

Q: Note down pIC50 recorded for O=C1NC(=O)c2ccc(Br)cc2/C1=C/NCc1ccc(NC(=O)C(Cl)Cl)cc1 [Example 302]
Ans: 5.92

Q: Note down pIC50 recorded for O=C1NC(=O)c2ccccc2/C1=C/Nc1ccc(CN2CCOCC2)cc1 [Example 19]
Ans: 4.80

Q: Note down pIC50 recorded for O=C1NC(=O)c2ccc(Br)cc2/C1=C/Nc1cc(F)c(N2CCN3CCC[C@H]3C2)c(F)c1 [Example 370]
Ans: 5.17

Q: Note down pIC50 recorded for O=C1NC(=O)c2ccc(I)cc2/C1=C/Nc1ccc(CN2CCC[C@@H]2CO)cc1 [Example 368]
Ans: 5.74

Q: Note down pIC50 recorded for CN1CCN(c2ccc(N/C=C3\C(=O)NC(=O)c4ccc(-c5ccc(C=O)o5)cc43)cc2)CC1 [Example 124]
Ans: 5.10

Q: Note down pIC50 recorded for C[C@@H]1CN(c2ccc(N/C=C3\C(=O)NC(=O)c4ccc(-c5ccsc5)cc43)cc2)C[C@H](C)N1 [Example 206]
Ans: 5.43

Q: Note down pIC50 recorded for O=Cc1sccc1-c1ccc2c(c1)/C(=C/Nc1ccc(CN3CCCCC3)cc1)C(=O)NC2=O [Example 97]
Ans: 5.55

Q: Note down pIC50 recorded for COc1cc(CN/C=C2\C(=O)NC(=O)c3ccc(-c4ccsc4)cc32)cc(O)c1OC [Example 85]
Ans: 5.08

Q: Note down pIC50 recorded for O=C1NC(=O)c2ccc(-c3ccsc3)cc2/C1=C/Nc1ccc(CN2CCCCC2)cc1 [Example 104]
Ans: 5.47

Q: Note down pIC50 recorded for CCCOc1ccc(CN/C=C2\C(=O)NC(=O)c3ccc(I)cc32)cc1O [Example 178]
Ans: 5.74

Q: Note down pIC50 recorded for COC[C@H]1CCCN1Cc1ccc(N/C=C2\C(=O)NC(=O)c3ccc(-c4ccoc4)cc32)cc1 [Example 330]
Ans: 6.16

Q: Note down pIC50 recorded for COc1ccc(CN/C=C2\C(=O)NC(=O)c3cccc(Br)c32)cc1O [Example 84]
Ans: 5.17

Q: Note down pIC50 recorded for O=C1NC(=O)c2ccc(-c3ccoc3)cc2/C1=C/NCc1ccc(OC(F)F)c(O)c1 [Example 199]
Ans: 5.72

---

- target-of-assay: cyclin D1/cdk 4 enzyme (Homo sapiens, UniProt P11802)
- Construct: made in house; host or cells: Sf9 insect cells, recombinant baculovirus
- Sequence (P11802 whole entry, species assumed): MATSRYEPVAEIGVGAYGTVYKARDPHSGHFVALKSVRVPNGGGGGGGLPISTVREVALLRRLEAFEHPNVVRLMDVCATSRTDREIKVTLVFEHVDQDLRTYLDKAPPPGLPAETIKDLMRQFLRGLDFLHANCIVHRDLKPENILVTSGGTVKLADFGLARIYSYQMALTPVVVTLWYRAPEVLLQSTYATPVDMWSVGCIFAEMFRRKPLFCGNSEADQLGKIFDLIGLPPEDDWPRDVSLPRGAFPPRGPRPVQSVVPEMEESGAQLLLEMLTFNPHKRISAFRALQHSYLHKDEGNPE
- Sequence (P24385 whole entry partner, species assumed): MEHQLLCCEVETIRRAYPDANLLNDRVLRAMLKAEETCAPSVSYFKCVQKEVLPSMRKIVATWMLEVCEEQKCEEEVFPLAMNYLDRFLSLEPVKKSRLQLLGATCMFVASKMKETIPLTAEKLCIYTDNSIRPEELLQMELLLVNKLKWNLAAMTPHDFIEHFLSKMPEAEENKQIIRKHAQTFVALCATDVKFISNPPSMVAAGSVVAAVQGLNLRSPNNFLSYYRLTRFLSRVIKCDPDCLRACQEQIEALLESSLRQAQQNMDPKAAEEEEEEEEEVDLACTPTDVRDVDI
- assay-name: CDK4 ELISA kinase assay (phospho-Rb ser 795 detection)
- Assay type: biochemical
- run-conditions: In Vitro Enzyme Assay, cyclin D1/cdk 4, read-out: CDK4 IC50
reported-endpoint: IC50 (µM)

O=C1NC(=O)c2ccc(-c3cccc4ccccc34)cc2C1=CNCc1ccc(O)c(O)c1 [Example 640]; 21.9

a: COc1ccc(-c2ccc3c(c2)C(=CNc2ccc(CC#N)cc2)C(=O)NC3=O)cc1 [Example 701]
b: CN1CCN(c2ccc(NC=C3C(=O)NC(=O)c4ccc(C=Cc5ccc([N+](=O)[O-])cc5)cc43)cc2)CC1 [Example 829]
c: O=C1NC(=O)c2ccc(I)cc2/C1=C/NCc1cc(O)ccc1I [Example 496]
d: O=C1NC(=O)c2ccc(I)cc2/C1=C/NCc1ccn(-c2ccoc2)c(=O)c1 [Example 525]
e: CN1CCN(c2cnc(N/C=C3\C(=O)NC(=O)c4ccc(I)cc43)cn2)CC1 [Example 507]
Q: Arrange the 5 compounds from largest to smallest IC50. // ordering of labels required in reply
Ans: b, e, a, c, d
(b: 26.5 µM, e: 13.7 µM, a: 6.6 µM, c: 2.7 µM, d: 0.06 µM)

---

Listed here: items and their measured pIC50.
- target-of-assay: cyclin B/CDK1 enzyme (Homo sapiens)
- Construct: purchased New England BioLabs; host or cells: Sf9 insect cells, recombinant baculovirus
- Sequence (P06493 whole entry): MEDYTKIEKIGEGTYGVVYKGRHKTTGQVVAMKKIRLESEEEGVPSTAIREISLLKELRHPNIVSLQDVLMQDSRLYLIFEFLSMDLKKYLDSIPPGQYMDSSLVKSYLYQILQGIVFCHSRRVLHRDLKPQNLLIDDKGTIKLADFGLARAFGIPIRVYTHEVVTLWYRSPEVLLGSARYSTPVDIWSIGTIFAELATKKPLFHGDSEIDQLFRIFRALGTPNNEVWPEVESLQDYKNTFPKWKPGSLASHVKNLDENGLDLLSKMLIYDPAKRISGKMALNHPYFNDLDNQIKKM
- Sequence (P14635 whole entry partner): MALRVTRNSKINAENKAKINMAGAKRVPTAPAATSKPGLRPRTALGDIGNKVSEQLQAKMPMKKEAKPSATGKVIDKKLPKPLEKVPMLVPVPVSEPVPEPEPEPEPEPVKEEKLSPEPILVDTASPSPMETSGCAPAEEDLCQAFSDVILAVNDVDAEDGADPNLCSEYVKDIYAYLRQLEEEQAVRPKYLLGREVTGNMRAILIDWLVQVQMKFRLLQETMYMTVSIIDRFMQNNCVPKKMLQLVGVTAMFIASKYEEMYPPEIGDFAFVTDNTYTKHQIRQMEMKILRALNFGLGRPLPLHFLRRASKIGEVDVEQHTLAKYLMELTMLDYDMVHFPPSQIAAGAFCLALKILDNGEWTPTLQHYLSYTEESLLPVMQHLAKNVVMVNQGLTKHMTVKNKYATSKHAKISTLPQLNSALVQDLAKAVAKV
- assay-name: CDK1 ELISA kinase assay (phospho-Rb ser 795 detection)
- Type: biochemical
- run-conditions: In Vitro Enzyme Assays, read-out: CDK1 IC50
pIC50: −log10 of the molar value.

Q: Fetch value of pIC50 on cyclin B/CDK1 enzyme (Homo sapiens) for CN(C)CCCc1ccc(N/C=C2\C(=O)NC(=O)c3ccc(Br)cc32)cc1 .
Ans: < 4.30

Q: Fetch value of pIC50 on cyclin B/CDK1 enzyme (Homo sapiens) for CN1CCN(c2ccc(N/C=C3\C(=O)NC(=O)c4cc(Br)ccc43)cc2)CC1 .
Ans: < 4.30

Q: Fetch value of pIC50 on cyclin B/CDK1 enzyme (Homo sapiens) for COc1cc(CN/C=C2\C(=O)NC(=O)c3ccc(Br)cc32)cc(OC(C)=O)c1OC .
Ans: < 4.30

Q: Fetch value of pIC50 on cyclin B/CDK1 enzyme (Homo sapiens) for O=C1NC(=O)c2ccccc2/C1=C/Nc1ccc(N2CCOCC2)cc1 .
Ans: < 4.54

---

- target-of-assay: cyclin E/CDK2 enzyme (Homo sapiens)
- Construct: made in house; host or cells: Sf9 insect cells, recombinant baculovirus
- assay-name: CDK2 ELISA kinase assay (phospho-Rb ser 795 detection)
- Type: biochemical
- run-conditions: In Vitro Enzyme Assays, read-out: CDK2 IC50
reported-endpoint: IC50

Examples from the recorded data:
CCCOc1ccc(CN/C=C2\C(=O)NC(=O)c3cc(OC)c(Br)cc32)cc1O; > 50 µM
CN1CCN(c2ccc(N/C=C3\C(=O)NC(=O)c4ccc(Br)cc43)cc2F)CC1; > 50 µM
O=C1NC(=O)c2ccccc2/C1=C\c1ccc(O)cc1; > 37 µM
CN1CCN(c2ccc(N/C=C3\C(=O)NC(=O)c4ccc(Br)cc43)cn2)CC1; > 50 µM
O=C1NC(=O)c2ccccc2/C1=C/Nc1ccc2cn[nH]c2c1; 5.6 µM

Q: Note down IC50 recorded for COC(=O)Oc1ccc(CN/C=C2\C(=O)NC(=O)c3ccc(Br)cc32)cc1OC(=O)OC
Ans: > 50 µM

Q: Note down IC50 recorded for O=C1NC(=O)c2ccc(Br)cc2/C1=C/Nc1ccc2c(c1)CCN2
Ans: 6.3 µM

Q: Note down IC50 recorded for COc1ccc(CN/C=C2\C(=O)NC(=O)c3cccc(Br)c32)cc1O
Ans: 3.1 µM

Q: Note down IC50 recorded for O=C1NC(=O)c2ccc(Br)cc2/C1=C/NCCN1CCNCC1
Ans: 38 µM

Q: Note down IC50 recorded for O=C1NC(=O)c2ccc(-c3ccsc3)cc2C1=NNc1ccc(CN2CCCCC2)cc1
Ans: > 50 µM

Q: Note down IC50 recorded for COC1CCN(Cc2ccc(N/C=C3\C(=O)NC(=O)c4ccc(I)cc43)cc2)CC1
Ans: > 50 µM

Q: Note down IC50 recorded for O=C1NC(=O)c2ccc(Br)cc2/C1=C/N1CCN(CCN2CCOCC2)CC1
Ans: > 50 µM

Q: Note down IC50 recorded for COc1ccc(CN/C=C2\C(=O)NC(=O)c3ccc(I)cc32)cc1O
Ans: 0.87 µM

Q: Note down IC50 recorded for O=C1NC(=O)c2ccc(I)cc2/C1=C/Nc1ccc(CN2CCC[C@H]2CO)cc1
Ans: > 50 µM

Q: Note down IC50 recorded for O=C1NC(=O)c2ccc(-c3ccsc3)cc2/C1=C/Nc1ccc(N2CCC(N3CCCC3)CC2)c(F)c1
Ans: 49.7 µM

Q: Note down IC50 recorded for O=C1NC(=O)c2ccc(Br)cc2/C1=C/NCCCN1CCCC1
Ans: > 50 µM

Q: Note down IC50 recorded for CN1CCN(c2ccc(N/C=C3\C(=O)NC(=O)c4ccc(-c5ccc(F)cc5)cc43)cc2)CC1
Ans: > 50 µM

Q: Note down IC50 recorded for CC(CO)N1CCN(c2ccc(N/C=C3\C(=O)NC(=O)c4ccc(I)cc43)cc2)CC1 (centres unmarked)
Ans: > 50 µM

Q: Note down IC50 recorded for CON(C)C(=O)C1CCN(c2ccc(N/C=C3\C(=O)NC(=O)c4ccc(I)cc43)cc2)CC1
Ans: > 50 µM

Q: Note down IC50 recorded for COCC#Cc1ccc2c(c1)/C(=C/Nc1ccc(N3CCN(C)CC3)cc1)C(=O)NC2=O
Ans: > 50 µM
